STUDY TARGET: crosslinked smooth muscle actomyosin (chicken gizzard smooth muscle myosin subfragment-1 crosslinked to cardiac or skeletal actin) (Gallus gallus)
REPORTED METRIC: IC50 (nM)

Worked examples follow.
[[record]]
molecule = "CCc1ccc(NC(=O)OCC2(C(=O)NCc3ccccc3Cl)CCCCC2)cc1"
observed_measurement = 238

[[record]]
molecule = "CCc1ccc(NC(=O)OCCN(CCCN)C(=O)NCc2ccccc2Cl)cc1"
observed_measurement = 2540

[[record]]
molecule = "CCc1ccc(NC(=O)OCC2(C(=O)NCc3ccccc3C#N)CCN(C(=O)CNC(=O)OC(C)(C)C)CC2)cc1"
observed_measurement = 7690


[I] CCc1ccc(NC(=O)OCC(C)(CCNC(=O)CNC(=O)OC(C)(C)C)C(=O)NCc2ccccc2Cl)cc1 (stereo not drawn)
[II] CCc1ccc(NC(=O)OCCN(C)C(=O)NCc2ccccc2Cl)cc1
[III] Cc1ccc(NC(=O)OCC2(C(=O)NCc3ccccc3Cl)CCN(C(=O)CN)CC2)c(Cl)c1
Input: Write the entries in order, lowest recorded IC50 first. Reply format: the labels, ordered as requested.
Output: II, III, I

[1] Cc1ccc(NC(=O)OCC2(C(=O)NCc3ccccc3Cl)CCOCC2)c(C)c1
[2] CCc1ccc(NC(=O)OCCN(CCCNC(=O)CNC(=O)OC(C)(C)C)C(=O)NCc2ccccc2Cl)cc1
Input: Select one. Lower IC50: 1 or 2 Lab note: record the label of whichever item you select.
Output: 1

---

STUDY TARGET: crosslinked smooth muscle actomyosin (chicken gizzard smooth muscle myosin subfragment-1 crosslinked to cardiac or skeletal actin) (Gallus gallus, UniProt P10587)
pIC50: −log10 of the molar value.
REPORTED METRIC: pIC50

Guide cases for pIC50, answers given:
[[record]]
compound = "CCc1ccc(NC(=O)OCCN(C)C(=O)C(O)Cc2ccccc2C(F)(F)F)cc1 (centres unmarked)"
reported_metric = "pIC50"
observed_measurement = 4.76

[[record]]
compound = "CCc1ccc(NC(=O)OCC2(C(=O)NCc3ccccc3Cl)CCN(C(=O)C(C)NC)CC2)cc1 (centres unmarked)"
reported_metric = "pIC50"
observed_measurement = 5.75

[[record]]
compound = "NCC(=O)N1CCC(COC(=O)Nc2ccc(-c3ccccc3)cc2)(C(=O)NCc2ccccc2Cl)CC1"
reported_metric = "pIC50"
observed_measurement = 6.56


[P] CCc1ccc(NC(=O)OCC2(C(=O)NCc3ccccc3OC)CCN(C(=O)CN)CC2)cc1
[Q] CCc1ccc(NC(=O)OCC2(C(=O)NCc3ccccc3F)CCN(C(=O)CNC(=O)OC(C)(C)C)CC2)cc1
Input: Could you check which of P and Q has a smaller value for pIC50? Output the label that corresponds to your choice.
Output: Q

---

STUDY TARGET: crosslinked smooth muscle actomyosin (chicken gizzard smooth muscle myosin subfragment-1 crosslinked to cardiac or skeletal actin) (Gallus gallus)
REPORTED METRIC: IC50 (nM)

The examples below pair each entry with its known result.
[[record]]
compound = "CCc1ccc(NC(=O)OCC2(C(=O)NCc3ccccc3Cl)CC2)cc1"
reported_metric = "IC50"
unit_string = "nM"
observed_measurement = 3050

[[record]]
compound = "CC(C)(C)OC(=O)NCC(=O)N1CCC(COC(=O)Nc2ccc(C(F)(F)F)cc2)(C(=O)NCc2cccc(Cl)c2F)CC1"
reported_metric = "IC50"
unit_string = "nM"
observed_measurement = 6560

[[record]]
compound = "CCc1ccc(NC(=O)OCC2(C(=O)NCc3ccccc3Cl)CCN(C(=O)c3cccnc3)CC2)cc1"
reported_metric = "IC50"
unit_string = "nM"
observed_measurement = 695

[[record]]
compound = "CCc1ccc(NC(=O)N[C@H]2CCCC[C@@H]2C(=O)NCc2ccccc2Cl)cc1"
reported_metric = "IC50"
unit_string = "nM"
observed_measurement = 16800

[[record]]
compound = "CCc1ccc(NC(=O)OCC2(C(=O)NCc3ccccc3Cl)CCN(C(=O)CCC(=O)OC)CC2)cc1"
reported_metric = "IC50"
unit_string = "nM"
observed_measurement = 426

[[record]]
compound = "CCc1ccc(NC(=O)OCC(C)(NC(=O)OC)C(=O)NCc2ccccc2Cl)cc1 (stereo not drawn)"
reported_metric = "IC50"
unit_string = "nM"
observed_measurement = 4090

[[record]]
compound = "CCc1ccc(NC(=O)OCC2(C(=O)NCc3ccccc3Cl)CCN(C(=O)[C@H](CO)NC(=O)OC(C)(C)C)CC2)cc1"
reported_metric = "IC50"
unit_string = "nM"
observed_measurement = 416

[[record]]
compound = "CCc1ccc(NC(=O)OCC2(C(=O)NCc3cccc(F)c3F)CCN(C(=O)CN)CC2)cc1"
reported_metric = "IC50"
unit_string = "nM"
observed_measurement = 164

[[record]]
compound = "CCc1ccc(NC(=O)OC[C@H](C)N(CC(=O)OC(C)(C)C)C(=O)NCc2ccccc2Cl)cc1"
reported_metric = "IC50"
unit_string = "nM"
observed_measurement = 18500

[[record]]
compound = "CCc1ccc(NC(=O)OCC2(C(=O)NCc3ccccc3Cl)CCN(CC(=O)OC)CC2)cc1"
reported_metric = "IC50"
unit_string = "nM"
observed_measurement = 1520


[I] CCc1ccc(NC(=O)OCC2(C(=O)NCc3ccccc3Cl)CCN(C(=O)[C@H](C)N)CC2)cc1
[II] NC(=O)c1ccc(NC(=O)OCC2(C(=O)NCc3ccccc3Cl)CCOCC2)cc1
Input: Of the pair I and II , name the member with the lesser recorded IC50. Give the chosen item's label as your response.
Output: I
